System: Escherichia coli (E. coli, K-12, Gram-negative)
Assay: Minimum inhibitory concentration (MIC) procedure in aqueous solution
Assay type: cell-based
Settings: 10^7~10^8 CFU/mL, contact time: 24 hr, MIC = minimum concentration giving more than 4 log reductions

compound	MIC of cationic colorants / ppm
CCCC[N+](C)(C)CC(O)CNc1ccc(NCC(O)C[N+](C)(C)CCCC)c2c1C(=O)c1ccccc1C2=O.[Cl-].[Cl-] (centres unmarked)	200
CCCCCCCC[N+](C)(C)CC(O)CNc1ccc(NCC(O)C[N+](C)(C)CCCCCCCC)c2c1C(=O)c1ccccc1C2=O.[Cl-].[Cl-] (centres unmarked)	5
CCCCCCCCCCCCCCCC[N+](C)(C)CC(O)CNc1ccc(NCC(O)C[N+](C)(C)CCCCCCCCCCCCCCCC)c2c1C(=O)c1ccccc1C2=O.[Cl-].[Cl-] (centres unmarked)	60
CCCCCCCCCCCCCCCC[N+](C)(C)CC(O)CNc1cccc2c1C(=O)c1ccccc1C2=O.[Cl-] (centres unmarked)	60
CCCCCCCCCCCC[N+](C)(C)CC(O)CNc1ccc(NCC(O)C[N+](C)(C)CCCCCCCCCCCC)c2c1C(=O)c1ccccc1C2=O.[Cl-].[Cl-] (centres unmarked)	4
